system: MS2 coat protein; assay: apparent KD of MS2 coat protein; designed switch direction (-1 OFF switch, 1 ON switch): 1; higher = weaker reporter binding; conditions: Eterna round: R98; input ligand: none

- sequence_text: "GGUCGUCACAUCUACAUGAGGAUCACCCAUGUCGAAAGACAUGAGGAUAUGCAUCCUAAUUGGAUGCAGAAGGCAUGGACGACC [Mat - Same State NG 3 - JL Mod - D22]"
  apparent KD of MS2 coat protein (nM): 1920
- sequence_text: "CACACAUGAGGAUCACCCAUGUCGUGGGCGGAAAACUGUGCACAGGAUAUGGUGAGGGCAACUCACCAGAAGGGUGGUCAGGAA [Zaenen]"
  apparent KD of MS2 coat protein (nM): 100
- sequence_text: "GCUGCUAUCGCAGGAUAUUACAUGGGAAAGAAUACAUGAGGAUCACCCAUGUAAAAGAUCAUAAAUAAGAAGGGCGAUAGCAGC [Lame State 6 - Jieux - Same State NG 2]"
  apparent KD of MS2 coat protein (nM): 774
- sequence_text: "CAGCAAUUCUUAGGAUAUGCUCAGGAAUACUGAGCAGAAGGAAGAUAUACCUGAGGAUCACCCAGGUUAAACUGAAGCUGAAAA [Same State NG1 - A3C, U17G Submission 7A]"
  apparent KD of MS2 coat protein (nM): 21.2
- sequence_text: "CGGAUGCAAAUAAAACAUGAGGAUCACCCAUGUGAGUCUCAUGAGGAUAUGCAGGUCAAAGACUUGCAGAAGGCAUGGCGUCCG [Mat - Same State NG 3 - JL Mod - D71]"
  apparent KD of MS2 coat protein (nM): 1840
